assayed_target: T1, IL13RA1
T1 construct: coated protein in the ELISA; also called IL13RA1-Fc-His (R&D Systems)
T1 chain: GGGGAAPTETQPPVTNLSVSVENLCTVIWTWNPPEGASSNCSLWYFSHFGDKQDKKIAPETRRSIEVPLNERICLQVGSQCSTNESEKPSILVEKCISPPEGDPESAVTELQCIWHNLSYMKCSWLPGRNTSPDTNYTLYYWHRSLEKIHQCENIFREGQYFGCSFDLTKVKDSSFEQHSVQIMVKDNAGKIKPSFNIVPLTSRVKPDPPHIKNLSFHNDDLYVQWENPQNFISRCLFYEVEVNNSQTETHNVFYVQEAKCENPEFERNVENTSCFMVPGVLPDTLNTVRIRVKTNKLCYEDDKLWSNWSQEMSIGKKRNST
test_name: ELISA on coated IL13RA1-Fc-His, 150 ng IgG1; None 0.094
Each entry below carries its recorded ELISA Absorbance (405 nm-570 nm).
# output: bare number, no unit

Use the examples below as a reference point.
HW-17 chimeric rabbit-human IgG1 LA/LA/PG (antibody, V domains shown, Fc-silenced (L234A/L235A/P329G) IgG1, lambda; Alexa Fluor 647-labeled in single-step flow cytometry; Cluster C-1) VH: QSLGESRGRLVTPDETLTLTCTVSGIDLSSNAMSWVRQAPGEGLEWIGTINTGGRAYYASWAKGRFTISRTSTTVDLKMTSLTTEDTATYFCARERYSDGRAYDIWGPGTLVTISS VL: SFVLTQPASVQVNLGQTVSLTCTADTLSRRYASWYQQKPGQAPVLLIYTDSNRPSGIPDRFSGSSSGNTATLTISGAQAGDEADYYCATDDGSGSIYQYVFGGGTQLTVTG | 0.073
HW-113 chimeric rabbit-human IgG1 LA/LA/PG (antibody, V domains shown, Fc-silenced (L234A/L235A/P329G) IgG1, lambda; Alexa Fluor 647-labeled in single-step flow cytometry) VH: QKQLVESGGGLVQPGGSLTLTCTVSGFSLNKYYMGWFRQAPGKGLEWIGVISRSGDTYYSSWAKGRFTISKASTTVDLRITSPTTEDTATYFCARDASSPGFHGDRLDLWGQGTLVTVSS VL: SFVLTQPASVQVNLGQTVSLTCTADTLSRSYASWYQQKPGQAPVLLIYRDTSRPSGVPDRFSGSSSGNTATLTISGAQAGDEADYYCATSDGIGSNYLWVFGGGTQLTVTG | 0.086
HW-101 chimeric rabbit-human IgG1 LA/LA/PG (antibody, V domains shown, Fc-silenced (L234A/L235A/P329G) IgG1, lambda; Alexa Fluor 647-labeled in single-step flow cytometry; Cluster C-97) VH: QEQLVESGGRLVTPGTPLTLTCKASGFSLGKYDMSWVRQAPGKGLEWIGTIYAGSGSTWYASWAKGRFTISKTSTTVDLKMTSLTTEDTATYFCARDFLGVNSIWGPGTLVTISS VL: SFVLTQPASVQVNLGQTVSLTCTADTLSRSYASWYQQKPDQAPVLLIHRDTSRPSGVPDRFSGSNSGNTATLTISGAQAGDEADYYCATSDGSGSNFHFVFGGGTQLTVTG | 0.067

Form field: reported ELISA Absorbance (405 nm-570 nm) of HW-16 chimeric rabbit-human IgG1 LA/LA/PG (antibody, V domains shown, Fc-silenced (L234A/L235A/P329G) IgG1, kappa; Alexa Fluor 647-labeled in single-step flow cytometry; Cluster C-45) VH: QSLEESGGRLVTPGTPLTLTCTASGFSLSSYAMSWVRQAPGKGLEWIGTMPTGGGTYYASWAKGRFTISKTSTTVDLQITSPTTEDTATYFCAKHWNIWGPGTLVTISS VL: DIVLTQTPSSTSTAVGDTVTINCRASQSIGRNLAWFQQKPGQPPKLLIYRASNLASGVPSRFKGSGSRTQFTLTISGVQREDAATYYCLGSYSSSDTAFGGGTELEILR 0.163

Param item = HW-56 chimeric rabbit-human IgG1 LA/LA/PG (antibody, V domains shown, Fc-silenced (L234A/L235A/P329G) IgG1, kappa; Alexa Fluor 647-labeled in single-step flow cytometry; Cluster C-45) VH: QSVKESEGGLFKPTDTLTLTCTASGFTVSTNAVTWVRQAPGNGLEYIGTIGRSGSAYFASWAKRRSTLTRDINLNTVTLKMTSLTAADTATYFCVRGSPGYRTAISIWGPGTLVTISS VL: AVMTQTPSSTSAAVEGTVTINCQASQSISNRLSWFQQKPGQPPKLLIYQASTLASGVPSRFKGSGSGTEFTLTISGVQREDAATYYCLGSYSSSDASFGGGTKLEIKR ; retrieve measured ELISA Absorbance (405 nm-570 nm). 0.16

Where do these numbers come from? They come from patent US20260049134A1.
